test details: Therapeutic index, ratio of neurotoxicity in iv dosed Sprague-Dawley rat assessed as total amount of drug infused at the point that partial or complete convulsions are first observed to 20 times ED50 for antiarrhythmic activity in iv dosed Sprague-Dawley rat coronary artery occlusion model
Assay type: organism-based
experimental context: in vivo
TI values for the compounds below.
Format: numeric value only, no unit, no commentary.

Below, each entry is followed by its recorded TI result.
COc1ccc(CCOC2CCCC[C@H]2N2CCOCC2)cc1OC.Cl (some centres undefined): 3.8
Cl.OC1CCN([C@@H]2CCCC[C@@H]2OCCc2cccc3ccccc23)C1 (some centres undefined): 8.8
COc1ccc(CCO[C@H]2CCCCC2N2CCOCC2)cc1OC (some centres undefined): 1.4

In the following, a different compound is considered.
# input I have this compound here, Cl.OC1CCN(C2CCCC[C@@H]2OCCc2cccc3ccccc23)C1 (some centres undefined) , and I need its recorded TI.
# output 4.3
